Molecular target: human V2 receptor (Homo sapiens)
Sequence (P30518 whole entry): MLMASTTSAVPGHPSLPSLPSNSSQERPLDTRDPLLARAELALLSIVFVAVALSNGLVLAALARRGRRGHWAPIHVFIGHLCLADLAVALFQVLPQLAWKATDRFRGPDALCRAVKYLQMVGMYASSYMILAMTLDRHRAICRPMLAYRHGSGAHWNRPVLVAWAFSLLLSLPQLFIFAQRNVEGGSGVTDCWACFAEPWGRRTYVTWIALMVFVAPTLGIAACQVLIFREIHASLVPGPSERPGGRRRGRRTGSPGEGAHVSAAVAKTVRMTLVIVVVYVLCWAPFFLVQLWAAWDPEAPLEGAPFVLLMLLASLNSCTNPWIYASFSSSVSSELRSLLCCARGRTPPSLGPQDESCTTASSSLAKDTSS
Assay: V2 binding assay (3H-AVP displacement, HEK-293 membranes)
Set-up: expressed in transfected cells; host or cells: HEK-293 (membranes)
Settings: 1.0 μM compound; read-out: V2@1.0, % Inh
measured parameter: inhibition at 1 µM (%)

Past entries and their recorded results:
structure_smiles=O=c1[nH]c2ccccc2n1C1CCN(C(=S)NCCc2ccc(Cl)cc2)CC1 measured_parameter="inhibition at 1 µM" obs_value=7
structure_smiles=CN1CCN(CCCn2c(=O)n(C3CCN(C(=O)NC(c4ccccc4)c4ccccc4)CC3)c3ccccc32)CC1 measured_parameter="inhibition at 1 µM" obs_value=24

1. O=C(NC(c1ccccc1)c1ccccc1)N1CCC(n2c(=O)n(CCCN3CC=CC3)c3ccccc32)CC1
2. O=C1c2ccccc2C(=O)N1CCCn1c(=O)n(C2CCN(C(=S)NC(c3ccccc3)c3ccccc3)CC2)c2ccccc21
Returns: the label, 1 or 2 , whose recorded inhibition at 1 µM is the lower number. Lab log: write the label of the selected item as the result. 2

Every entry's value here was drawn from patent US6653478B2.
